Source of measurements: the kinase profiling compilation of Christmann-Franck et al. (2016)

target: HIPK3 (human) (UniProt Q9H422); test: radiometric filter-binding kinase assay, Kinase HotSpot; conditions: compound 0.5 µM; ATP 10 µM
Sequence (Q9H422 whole entry, looked up): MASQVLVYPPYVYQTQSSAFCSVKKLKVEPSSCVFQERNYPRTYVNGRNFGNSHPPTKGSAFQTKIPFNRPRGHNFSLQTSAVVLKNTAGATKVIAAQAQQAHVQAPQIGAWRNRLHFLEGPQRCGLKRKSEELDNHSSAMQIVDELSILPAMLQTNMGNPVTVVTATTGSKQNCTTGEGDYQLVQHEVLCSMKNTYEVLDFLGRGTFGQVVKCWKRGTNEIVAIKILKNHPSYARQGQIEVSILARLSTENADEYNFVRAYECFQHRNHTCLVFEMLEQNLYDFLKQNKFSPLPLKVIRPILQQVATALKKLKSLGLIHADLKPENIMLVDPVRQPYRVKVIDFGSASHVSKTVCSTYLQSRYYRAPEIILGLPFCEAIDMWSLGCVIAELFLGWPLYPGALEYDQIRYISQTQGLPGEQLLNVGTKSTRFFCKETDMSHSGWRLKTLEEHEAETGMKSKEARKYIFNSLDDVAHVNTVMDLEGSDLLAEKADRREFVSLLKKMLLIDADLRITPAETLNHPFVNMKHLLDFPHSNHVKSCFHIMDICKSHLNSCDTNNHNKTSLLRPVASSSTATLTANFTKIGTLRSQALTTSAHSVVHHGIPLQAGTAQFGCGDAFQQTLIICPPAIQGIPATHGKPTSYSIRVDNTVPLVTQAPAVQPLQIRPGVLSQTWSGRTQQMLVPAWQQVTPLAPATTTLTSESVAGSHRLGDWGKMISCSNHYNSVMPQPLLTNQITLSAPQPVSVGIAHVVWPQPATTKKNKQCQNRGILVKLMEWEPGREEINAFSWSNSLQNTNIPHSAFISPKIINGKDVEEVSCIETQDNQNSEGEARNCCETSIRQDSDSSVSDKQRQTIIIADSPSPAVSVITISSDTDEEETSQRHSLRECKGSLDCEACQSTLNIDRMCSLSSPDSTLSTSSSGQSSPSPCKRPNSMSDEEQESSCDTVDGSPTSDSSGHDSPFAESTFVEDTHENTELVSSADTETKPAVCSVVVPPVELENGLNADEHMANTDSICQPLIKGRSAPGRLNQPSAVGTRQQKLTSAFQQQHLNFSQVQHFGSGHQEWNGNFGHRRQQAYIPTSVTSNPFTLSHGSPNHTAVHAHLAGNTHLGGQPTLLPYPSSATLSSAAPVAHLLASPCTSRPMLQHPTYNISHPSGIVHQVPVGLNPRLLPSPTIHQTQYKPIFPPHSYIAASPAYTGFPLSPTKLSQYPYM
Listing of entries alongside the reported residual activity.
endpoint-name: residual activity (%)

compound=CC(C)[C@H](CO)Nc1nc(Nc2cccc(Cl)c2)c2ncn(C(C)C)c2n1 value_units=% endpoint_value=102
compound="CS(=O)c1ccc(-c2nc(-c3ccc(F)cc3)c(-c3ccncc3)[nH]2)cc1 (configuration not stated)" value_units=% endpoint_value=103
compound=COc1cc2ncnc(Nc3ccc(F)c(Cl)c3)c2cc1OCCCN1CCOCC1 value_units=% endpoint_value=103
compound=NC(=O)c1ccc(N(C(N)=O)c2c(F)cccc2F)nc1-c1ccc(F)cc1F value_units=% endpoint_value=98.4
compound=COc1ccc(-c2cnc3c(-c4ccsc4)cnn3c2)cc1 value_units=% endpoint_value=103
compound=Nc1n[nH]c2nnc(-c3c(-c4ccccc4)nn4ccccc34)cc12 value_units=% endpoint_value=95.3
compound=O=c1cc(-c2cccc3c2Sc2ccccc2S3)oc(N2CCOCC2)c1 value_units=% endpoint_value=105
compound=O=C(Nc1ccc(Cl)cc1)c1ccccc1NCc1ccncc1 value_units=% endpoint_value=98.7
compound="O=C(NC(NC(=S)Nc1ccc(F)c([N+](=O)[O-])c1)C(Cl)(Cl)Cl)C(c1ccccc1)c1ccccc1 (configuration not stated)" value_units=% endpoint_value=105
compound=CCN1/C(=C/C(C)=O)Sc2ccc(OC)cc21 value_units=% endpoint_value=100
compound=CC(C)n1cnc2c(Nc3cccc(Cl)c3)nc(NCCO)nc21 value_units=% endpoint_value=99.9
compound=C#Cc1cccc(Nc2ncnc3cc(OCCOC)c(OCCOC)cc23)c1 value_units=% endpoint_value=102
compound=O=C1Nc2ccccc2/C1=C\c1c(Cl)[nH]c2ccccc12 value_units=% endpoint_value=100
compound=O=c1cc(N2CCNCC2)oc2c(-c3ccccc3)cccc12 value_units=% endpoint_value=116
compound=Cc1ccc(NC(=O)c2ccc(CN3CCN(C)CC3)cc2)cc1Nc1nc(-c2cccnc2)cs1 value_units=% endpoint_value=101
compound=CCCNC(=O)Nc1ccc(Oc2ncnc3cc(OC)c(OC)cc23)cc1Cl value_units=% endpoint_value=96.2
compound=COc1cc2nccc(Oc3ccc(NC(=S)NC(=O)c4ccccc4C)cc3)c2cc1OC value_units=% endpoint_value=95.2
compound=Nc1nc(Nc2ccc(S(N)(=O)=O)cc2)nn1C(=S)Nc1c(F)cccc1F value_units=% endpoint_value=78.2
compound=O=C1Cc2c([nH]c3ccc([N+](=O)[O-])cc23)-c2ccccc2N1 value_units=% endpoint_value=96.6
compound=O=C1Nc2cc(Br)ccc2/C1=C1/Nc2ccccc2/C1=N\O value_units=% endpoint_value=64.8
compound=Nc1nc(Nc2ccc(S(N)(=O)=O)cc2)nn1C(=O)c1c(F)cccc1F value_units=% endpoint_value=91.2
compound=Clc1ccc(Nc2nnc(Cc3ccncc3)c3ccccc23)cc1 value_units=% endpoint_value=96.5
